protocol: Selectivity index, ratio of IC50 for human MRC5 cells to IC50 for human NCI-H460 cells
Assay type: toxicity
measurementConditions: MRC5 cells versus NCI-H460 cells, read-out: Ratio IC50
measurementLabel: selectivity ratio

{"compound": "COc1cccc(/C=C2\\CNC/C(=C\\c3cccc(OC)c3)C2=O)c1", "selectivity ratio": 1.23}
{"compound": "COc1ccccc1/C=C1\\CNC/C(=C\\c2ccccc2OC)C1=O", "selectivity ratio": 1.27}
{"compound": "O=C1/C(=C/c2ccc(C(F)(F)F)cc2)CNC/C1=C\\c1ccc(C(F)(F)F)cc1", "selectivity ratio": 1.22}
{"compound": "CN1C/C(=C\\c2ccccc2)C(=O)/C(=C/c2ccccc2)C1", "selectivity ratio": 1.16}

**Query** Which measured selectivity ratio value corresponds to COc1cccc(/C=C2\CN(C)C/C(=C\c3cccc(OC)c3)C2=O)c1 ?
**Result** 2.37

**Query** So what's the measured selectivity ratio for this one? O=C1/C(=C/c2ccccc2)CNC/C1=C\c1ccccc1
**Result** 2.07

**Query** Fill blank: measured selectivity ratio of the compound O=C1/C(=C/c2cccc(C(F)(F)F)c2)CNC/C1=C\c1cccc(C(F)(F)F)c1 is ____.
**Result** 32

**Query** Could you share which selectivity ratio value was measured for O=C1/C(=C/c2ccc(C(F)(F)F)cc2)CCC/C1=C\c1ccc(C(F)(F)F)cc1 ?
**Result** 3.32

**Query** Looking for the measured selectivity ratio of CN1C/C(=C\c2ccc(C(F)(F)F)cc2)C(=O)/C(=C/c2ccc(C(F)(F)F)cc2)C1 , can you help?
**Result** 2.16

**Query** What does the data say about its selectivity ratio? Entry: O=c1[nH]cc(F)c(=O)[nH]1 [FLUOROURACIL]
**Result** 9.89

====

Tested on: HepG2
protocol: Cytotoxicity against human HepG2 cells assessed as reduction in cell viability incubated for 48 hrs by MTT assay
Assay type: functional, cell-based
measurementConditions: HepG2, 48 h
pIC50: −log10 of the molar value.
Tick satisfied if pIC50 is 5 or greater. Tick not satisfied if pIC50 is less than 5.

Recorded results for 3 compounds are shown here.
{"substanceSmiles": "COc1cccc(/C=C2\\CCC/C(=C\\c3cccc(OC)c3)C2=O)c1", "assignedLabel": "not satisfied"}
{"substanceSmiles": "O=C1/C(=C/c2cccc(C(F)(F)F)c2)CNC/C1=C\\c1cccc(C(F)(F)F)c1", "assignedLabel": "satisfied"}
{"substanceSmiles": "COc1ccc(/C=C2\\CCC/C(=C\\c3ccc(OC)cc3)C2=O)cc1", "assignedLabel": "not satisfied"}

**Query** Please tell me: is the compound CN1C/C(=C\c2ccc(C(F)(F)F)cc2)C(=O)/C(=C/c2ccc(C(F)(F)F)cc2)C1 at or over 5 in terms of pIC50?
**Result** satisfied

**Query** Reported pIC50 reaches at least 5 for COc1ccc(/C=C2\CN(C)C/C(=C\c3ccc(OC)cc3)C2=O)cc1 ?
**Result** not satisfied

**Query** Does O=C1/C(=C/c2cccc(C(F)(F)F)c2)CCC/C1=C\c1cccc(C(F)(F)F)c1 have a reported pIC50 of at least 5?
**Result** satisfied

**Query** Is reported pIC50 greater than or equal to 5 here: COc1ccc(/C=C2\CNC/C(=C\c3ccc(OC)cc3)C2=O)cc1
**Result** not satisfied

**Query** Please indicate if the recorded pIC50 for O=C1/C(=C/c2ccccc2)CCC/C1=C\c1ccccc1 meets or exceeds 5.
**Result** not satisfied

**Query** Tell me whether pIC50 is at least 5 here: CN1C/C(=C\c2cccc(C(F)(F)F)c2)C(=O)/C(=C/c2cccc(C(F)(F)F)c2)C1
**Result** satisfied
